# reported MIC; entries follow
System: Raoultella planticola
TEST DESCRIPTION: Antibacterial activity against Klebsiella planticola MTCC 530 assessed as inhibition of bacterial growth incubated for 24 hrs by agar well diffusion method
Assay type: functional
CONDITION PARAMETERS: MTCC 530, 24 h

A selection of reference data follows.
compound=O=C(N/N=C/c1ccc(Br)cc1)c1n[nH]c2c1Cc1ccccc1-2 property_name=MIC endpoint_value="> 125 µg/mL"
compound=COc1ccc2c(c1)Cc1c(C(=O)N/N=C/c3c(F)cc(F)cc3F)n[nH]c1-2 property_name=MIC endpoint_value="7.8 µg/mL"
compound=COc1ccc2c(c1)Cc1c(C(=O)N/N=C/c3ccc(O)c(OC)c3)n[nH]c1-2 property_name=MIC endpoint_value="3.9 µg/mL"
compound="O=C(O)c1cn(C2CC2)c2cc(N3CCNCC3)c(F)cc2c1=O [CIPROFLOXACIN]" property_name=MIC endpoint_value="0.9 µg/mL"
compound=COc1ccc2c(c1)Cc1c(C(=O)N/N=C/c3ccc(OC)c(OC)c3)n[nH]c1-2 property_name=MIC endpoint_value="> 125 µg/mL"
compound=COc1cc(/C=N/NC(=O)c2n[nH]c3c2Cc2ccccc2-3)cc(OC)c1OC property_name=MIC endpoint_value="> 125 µg/mL"

Q: Which MIC value belongs to COc1ccc(/C=N/NC(=O)c2n[nH]c3c2Cc2ccccc2-3)cc1OC ?
Ans: > 125 µg/mL

Q: Likewise for COc1cc(/C=N/NC(=O)c2n[nH]c3c2Cc2cc(F)ccc2-3)ccc1O ?
Ans: > 125 µg/mL

Q: What would you report for COc1ccc2c(c1)Cc1c(C(=O)N/N=C/c3ccc(O)cc3)n[nH]c1-2 ?
Ans: > 125 µg/mL

Q: Now give it for COc1cc(/C=N/NC(=O)c2n[nH]c3c2Cc2ccccc2-3)ccc1O too.
Ans: 3.9 µg/mL

====

System: Micrococcus luteus
TEST DESCRIPTION: Bactericidal activity against Micrococcus luteus MTCC 2470 assessed as bacterial killing incubated for 24 hrs
Assay type: functional
CONDITION PARAMETERS: MTCC 2470, 24 h
PROPERTY NAME: MBC (µg/mL)
Give the value, in units of µg/mL, as a plain number.

Q: Query for Micrococcus luteus: what MBC does the record show for O=C(O)c1cn(C2CC2)c2cc(N3CCNCC3)c(F)cc2c1=O [CIPROFLOXACIN] ?
Ans: 1.9

Q: Next up: COc1ccc2c(c1)Cc1c(C(=O)N/N=C/c3ccc(O)c(OC)c3)n[nH]c1-2
Ans: 7.8

Q: Follow-up item: O=C(N/N=C/c1ccc(O)cc1)c1n[nH]c2c1Cc1cc(F)ccc1-2
Ans: 15.6

====

Test system: Escherichia coli
TEST DESCRIPTION: Bactericidal activity against Escherichia coli MTCC 739 assessed as bacterial killing incubated for 24 hrs
Format: functional
CONDITION PARAMETERS: MTCC 739, 24 h
Parameter MBC: see the listing below.
Record the value in µg/mL, omitting the unit from your answer.

// known answers, use as guide
compound_string=O=C(N/N=C/c1ccc(O)cc1)c1n[nH]c2c1Cc1ccccc1-2 assayed_target="Escherichia coli" property_name=MBC endpoint_value=7.8
compound_string=COc1ccc2c(c1)Cc1c(C(=O)N/N=C/c3c(F)cc(F)cc3F)n[nH]c1-2 assayed_target="Escherichia coli" property_name=MBC endpoint_value=7.8
compound_string=COc1cc(/C=N/NC(=O)c2n[nH]c3c2Cc2ccccc2-3)ccc1O assayed_target="Escherichia coli" property_name=MBC endpoint_value=15.6
compound_string=COc1ccc2c(c1)Cc1c(C(=O)N/N=C/c3ccc(O)c(OC)c3)n[nH]c1-2 assayed_target="Escherichia coli" property_name=MBC endpoint_value=7.8
compound_string=O=C(O)c1cn(C2CC2)c2cc(N3CCNCC3)c(F)cc2c1=O assayed_target="Escherichia coli" property_name=MBC endpoint_value=1.9

Now look at this one.
Q: Return reported MBC; argument: O=C(N/N=C/c1ccc(O)cc1)c1n[nH]c2c1Cc1cc(F)ccc1-2
Ans: 7.8

====

Tested on: Staphylococcus aureus
TEST DESCRIPTION: Antibacterial activity against Staphylococcus aureus MLS-16 MTCC 2940 assessed as inhibition of bacterial growth incubated for 24 hrs by agar well diffusion method
Assay type: functional
CONDITION PARAMETERS: MLS-16 MTCC 2940, 24 h
PROPERTY NAME: MIC

Answered cases to consult:
compound_string=COc1ccc(/C=N/NC(=O)c2n[nH]c3c2Cc2ccccc2-3)cc1OC assayed_target="Staphylococcus aureus" endpoint_value="> 125 µg/mL"
compound_string=O=C(O)c1cn(C2CC2)c2cc(N3CCNCC3)c(F)cc2c1=O assayed_target="Staphylococcus aureus" endpoint_value="0.9 µg/mL"
compound_string=O=C(N/N=C/c1ccc(Cl)cc1)c1n[nH]c2c1Cc1ccccc1-2 assayed_target="Staphylococcus aureus" endpoint_value="3.9 µg/mL"
compound_string=O=C(N/N=C/c1c(F)cc(F)cc1F)c1n[nH]c2c1Cc1ccccc1-2 assayed_target="Staphylococcus aureus" endpoint_value="> 125 µg/mL"

Q: # lookup: MIC of COc1ccc2c(c1)Cc1c(C(=O)N/N=C/c3ccc(Br)cc3)n[nH]c1-2
Ans: > 125 µg/mL

Q: Next record, please: COc1ccc2c(c1)Cc1c(C(=O)N/N=C/c3c(F)cc(F)cc3F)n[nH]c1-2
Ans: 3.9 µg/mL

Q: Next compound: O=C(N/N=C/c1ccc(Cl)cc1)c1n[nH]c2c1Cc1cc(F)ccc1-2
Ans: 15.6 µg/mL

Q: Field entry: COc1ccc2c(c1)Cc1c(C(=O)N/N=C/c3ccc(OC)c(OC)c3)n[nH]c1-2
Ans: 7.8 µg/mL

Q: Ok, now COc1cc(/C=N/NC(=O)c2n[nH]c3c2Cc2ccccc2-3)cc(OC)c1OC
Ans: 15.6 µg/mL

Q: // query: O=C(N/N=C/c1ccc(Br)cc1)c1n[nH]c2c1Cc1ccccc1-2
Ans: 15.6 µg/mL

Q: Follow-up item: COc1cc(/C=N/NC(=O)c2n[nH]c3c2Cc2cc(F)ccc2-3)ccc1O
Ans: 3.9 µg/mL

Q: Query O=C(N/N=C/c1ccc(O)cc1)c1n[nH]c2c1Cc1ccccc1-2 next
Ans: 3.9 µg/mL

Q: Do the same for O=C(N/N=C/c1ccc(O)cc1)c1n[nH]c2c1Cc1cc(F)ccc1-2 please
Ans: 3.9 µg/mL

Q: Then O=C(N/N=C/c1ccc(Br)cc1)c1n[nH]c2c1Cc1cc(F)ccc1-2 ?
Ans: 15.6 µg/mL

Q: Param item: COc1ccc2c(c1)Cc1c(C(=O)N/N=C/c3ccc(O)cc3)n[nH]c1-2
Ans: 7.8 µg/mL

Q: Could you do the same for COc1cc(/C=N/NC(=O)c2n[nH]c3c2Cc2cc(F)ccc2-3)cc(OC)c1OC , please?
Ans: 7.8 µg/mL

Q: Follow-up entry: COc1cc(/C=N/NC(=O)c2n[nH]c3c2Cc2ccccc2-3)ccc1O
Ans: 7.8 µg/mL

Q: // same read-out, input: COc1ccc2c(c1)Cc1c(C(=O)N/N=C/c3ccc(O)c(OC)c3)n[nH]c1-2
Ans: 3.9 µg/mL

Q: Next: COc1ccc2c(c1)Cc1c(C(=O)N/N=C/c3cc(OC)c(OC)c(OC)c3)n[nH]c1-2
Ans: 7.8 µg/mL

Q: Also COc1ccc2c(c1)Cc1c(C(=O)N/N=C/c3ccc(Cl)cc3)n[nH]c1-2 ?
Ans: 7.8 µg/mL

Q: What do we get for O=C(N/N=C/c1c(F)cc(F)cc1F)c1n[nH]c2c1Cc1cc(F)ccc1-2 ?
Ans: 3.9 µg/mL

Q: Param item: COc1ccc(/C=N/NC(=O)c2n[nH]c3c2Cc2cc(F)ccc2-3)cc1OC
Ans: 3.9 µg/mL

====

Test system: Candida albicans
TEST DESCRIPTION: Fungicidal activity against Candida albicans MTCC 4748 assessed as fungal killing incubated for 24 hrs
Assay type: functional
CONDITION PARAMETERS: MTCC 4748, 24 h
Consider the following compounds and their measured MFC readings.

compound=COc1cc(/C=N/NC(=O)c2n[nH]c3c2Cc2ccccc2-3)ccc1O property_name=MFC endpoint_value="7.8 µg/mL"
compound=O=C(N/N=C/c1ccc(O)cc1)c1n[nH]c2c1Cc1cc(F)ccc1-2 property_name=MFC endpoint_value="31.2 µg/mL"
compound="Clc1ccc(COC(Cn2ccnc2)c2ccc(Cl)cc2Cl)c(Cl)c1 (stereo unspecified) [MICONAZOLE]" property_name=MFC endpoint_value="7.8 µg/mL"
compound=COc1ccc2c(c1)Cc1c(C(=O)N/N=C/c3c(F)cc(F)cc3F)n[nH]c1-2 property_name=MFC endpoint_value="31.2 µg/mL"
compound=O=C(N/N=C/c1ccc(O)cc1)c1n[nH]c2c1Cc1ccccc1-2 property_name=MFC endpoint_value="> 62.5 µg/mL"

Now for another entry.
Q: Param readout= MFC; system= Candida albicans; entry= COc1ccc2c(c1)Cc1c(C(=O)N/N=C/c3ccc(O)c(OC)c3)n[nH]c1-2 ; returns value.
Ans: 15.6 µg/mL
